Test: AUC (0 to infinity) in CD-1 mouse plasma at 2.5 mg/kg, ip measured for 24 hrs by LC-MS/MS analysis
Type: ADME, organism-based
Parameters: dose 2.5 mg/kg, time 24 hrs, route ip
MEASURED ATTRIBUTE: AUC(0-inf) (ng·h/mL)
One number for each entry, in ng·h/mL.

Query: Field request: AUC(0-inf) | item: "C=C(C[C@H](N)C(=O)O)C(=O)NCc1ccc(F)cc1"
Result: 967

---

For each record, write down the corresponding IC50.
Test system: MCF7
Assay: Antiproliferative activity against human MCF7 cells assessed as inhibition of cell growth incubated for 72 hrs by Hoechst 33342/propidium iodide staining based fluorescence analysis
Type: functional
Details: MCF7, 72 h

Some entries whose results are on file:
C=C(C[C@H](NC(=O)OC(C)(C)C)C(=O)OCC)C(=O)Nc1ccc(Cl)cc1	> 1000 µM
C=C(C[C@H](NC(=O)OC(C)(C)C)C(=O)OCC)C(=O)NC1CC1	> 1000 µM
C=C(C[C@H](NC(=O)OC(C)(C)C)C(=O)OC(C)(C)C)C(=O)NCc1ccccc1	> 1000 µM
C=C(C[C@H](NC(=O)OC(C)(C)C)C(=O)OCC)C(=O)N1CCCCC1	> 1000 µM

Query: Field request: IC50 | item: "C=C(C[C@H](NC(=O)OC(C)(C)C)C(=O)OC(C)(C)C)C(=O)NC1CC1"
Result: < 1000 µM
